Attribution: patent US11214803B2

Let's look at some substances and their measured % UTC (Yap1 mRNA).
Test system: Yap1 mRNA
Method: Dose-dependent inhibition of human Yap1 in SNU-449 cells (Example 9, RTS36584)
Type: cell-based
Condition Set: 500.0 nM, free uptake, approximately 48 hours
Strand notation (5' to 3'): a small letter for the sugar, then the base; units joined by * are phosphorothioate-linked, units joined directly phosphodiester-linked; [ ] holds rarer units or linkages, { } end groups; capitals alone tell only the bases. e = 2'-O-(2-methoxyethyl) (MOE); k = constrained ethyl (cEt); [5mC] = 5-methylcytosine; d = 2'-deoxy (DNA); m = 2'-O-methyl
Experimental Endpoint: % UTC (Yap1 mRNA) (% UTC)

>>> data_value("1198718 (kG*eA*kA*dA*dT*dT*dG*dT*d[5mC]*dT*d[5mC]*dA*eT*eG*k[5mC]*k[5mC]; antisense) [compound 1198718]")
14
>>> data_value("1198213 (kA*kT*dA*dT*dT*dA*dG*dA*dG*dT*dA*eT*eG*eT*kG*kG) [compound 1198213]")
11
>>> data_value("1198295 (kT*kA*kG*dA*dG*dT*dA*dT*dG*dT*dG*dG*k[5mC]*eA*kA*eT; antisense) [compound 1198295]")
19
>>> data_value("1198596 (k[5mC]*kT*k[5mC]*dT*dT*dA*dT*dA*dT*dG*dG*dT*kT*kT*kT*eG; antisense) [compound 1198596]")
14
>>> data_value("1198610 (kT*kG*kT*dA*dT*dG*dT*d[5mC]*dA*dG*dA*dA*kG*kA*kG*eT; antisense) [compound 1198610]")
7
>>> data_value("1198664 (kG*k[5mC]*dT*dT*dT*dG*dG*dA*dA*dG*dA*dT*k[5mC]*eT*kG*eA; antisense) [compound 1198664]")
14
>>> data_value("1076453 (GTAATATTGCAATCTG; 3-10-3 cEt gapmer, further chemistry not given here) [compound 1076453]")
8
>>> data_value("1198557 (kA*kT*kA*dT*dT*dA*dG*dA*dG*dT*dA*dT*kG*kT*kG*eG; antisense) [compound 1198557]")
26
>>> data_value("1198287 (kA*kA*kA*dT*dT*dG*dT*d[5mC]*dT*d[5mC]*dA*dT*kG*e[5mC]*k[5mC]*eT; antisense) [compound 1198287]")
36
>>> data_value("1198380 (kA*dG*dA*dG*dT*dA*dT*dG*dT*dG*dG*k[5mC]*eA*kA*eT*kA; antisense) [compound 1198380]")
27
>>> data_value("1200860 (kT*kA*kA*dA*dG*mU*dG*dT*dA*dT*dG*dT*d[5mC]*kA*kG*kA; antisense) [compound 1200860]")
15
>>> data_value("1198917 (k[5mC]*kA*d[5mC]*dT*dT*dT*dT*dA*d[5mC]*dA*dT*kT*dA*kG*dG*kA; antisense) [compound 1198917]")
12
>>> data_value("1198286 (kA*kA*kT*dT*dG*dT*d[5mC]*dT*d[5mC]*dA*dT*dG*k[5mC]*e[5mC]*kT*eT; antisense) [compound 1198286]")
22

* * *

System: Yap1 mRNA
Method: Dose-dependent inhibition of human Yap1 in SNU-449 cells (Example 9, RTS36584)
Format: cell-based
Condition Set: 125.0 nM, free uptake, approximately 48 hours
Strand notation (5' to 3'): a small letter for the sugar, then the base; units joined by * are phosphorothioate-linked, units joined directly phosphodiester-linked; [ ] holds rarer units or linkages, { } end groups; capitals alone tell only the bases. e = 2'-O-(2-methoxyethyl) (MOE); k = constrained ethyl (cEt); [5mC] = 5-methylcytosine; d = 2'-deoxy (DNA); m = 2'-O-methyl
Let's look at some substances and their measured % UTC (Yap1 mRNA).
Experimental Endpoint: % UTC (Yap1 mRNA) (% UTC)

>>> data_value("1198288 (kG*kA*kA*dA*dT*dT*dG*dT*d[5mC]*dT*d[5mC]*dA*kT*eG*k[5mC]*e[5mC]; antisense) [compound 1198288]")
43
>>> data_value("1074464 (kT*kT*kA*dG*dA*dG*dT*dA*dT*dG*dT*dG*dG*k[5mC]*kA*kA) [compound 1074464]")
50
>>> data_value("1198504 (kT*k[5mC]*dA*dG*dA*dT*dT*dT*dA*dG*dG*eA*kT*eG*k[5mC]*eA; antisense) [compound 1198504]")
46
>>> data_value("1198555 (kA*kT*kT*dA*dG*dA*dG*dT*dA*dT*dG*dT*kG*kG*k[5mC]*eA; antisense) [compound 1198555]")
40
>>> data_value("1198814 (kA*kG*dA*dG*dT*dA*dT*dG*dT*dG*dG*k[5mC]*eA*kA*eT*kA) [compound 1198814]")
25
>>> data_value("1198698 (kA*kA*dG*dT*dG*dT*dA*dT*dG*dT*d[5mC]*dA*kG*eA*kA*eG) [compound 1198698]")
29
>>> data_value("1198347 (kG*kT*kA*dA*dT*dA*dT*dT*dG*d[5mC]*dA*dA*kT*e[5mC]*kT*eG) [compound 1198347]")
54
>>> data_value("1198211 (kA*kT*dT*dA*dG*dA*dG*dT*dA*dT*dG*eT*eG*eG*k[5mC]*kA) [compound 1198211]")
37
>>> data_value("1198570 (kG*k[5mC]*kA*d[5mC]*dT*dT*dT*dT*dA*d[5mC]*dA*dT*kT*kA*kG*eG) [compound 1198570]")
33
>>> data_value("1198557 (kA*kT*kA*dT*dT*dA*dG*dA*dG*dT*dA*dT*kG*kT*kG*eG; antisense) [compound 1198557]")
52
>>> data_value("1198285 (kA*kT*kT*dG*dT*d[5mC]*dT*d[5mC]*dA*dT*dG*d[5mC]*k[5mC]*eT*kT*eA; antisense) [compound 1198285]")
41
>>> data_value("1200860 (kT*kA*kA*dA*dG*mU*dG*dT*dA*dT*dG*dT*d[5mC]*kA*kG*kA; antisense) [compound 1200860]")
35
>>> data_value("1198614 (kT*kA*kA*dA*dG*dT*dG*dT*dA*dT*dG*dT*k[5mC]*kA*kG*eA; antisense) [compound 1198614]")
26
>>> data_value("1198492 (kG*k[5mC]*dT*dT*dT*dG*dG*dA*dA*dG*dA*eT*k[5mC]*eT*kG*eA; antisense) [compound 1198492]")
39
>>> data_value("1198673 (kG*kA*dT*dT*dT*dA*dG*dG*dA*dT*dG*d[5mC]*kA*eT*kG*eG; antisense) [compound 1198673]")
26
>>> data_value("1198805 (kA*kT*dT*dG*dT*d[5mC]*dT*d[5mC]*dA*dT*dG*k[5mC]*e[5mC]*kT*eT*kA; antisense) [compound 1198805]")
42
>>> data_value("1198611 (kA*kG*kT*dG*dT*dA*dT*dG*dT*d[5mC]*dA*dG*kA*kA*kG*eA; antisense) [compound 1198611]")
19
>>> data_value("1198312 (kG*k[5mC]*kA*d[5mC]*dT*dT*dT*dT*dA*d[5mC]*dA*dT*kT*eA*kG*eG) [compound 1198312]")
34
>>> data_value("1198911 (kG*kA*dG*dG*dT*dA*dT*dA*dA*d[5mC]*dT*kG*dG*kG*d[5mC]*kA; antisense) [compound 1198911]")
31
>>> data_value("1200784 (kT*kG*kT*d[5mC]*dT*mC*dA*dT*dG*d[5mC]*d[5mC]*dT*dT*kA*kT*kA; antisense) [compound 1200784]")
51
>>> data_value("1009325 (kA*kG*kA*dG*dT*dA*dT*dG*dT*dG*dG*d[5mC]*dA*kA*kT*kA; antisense) [compound 1009325]")
36
>>> data_value("1198831 (CACTTTTACATTAGGA; chemically modified gapmer, further chemistry not given here) [compound 1198831]")
33
>>> data_value("1198615 (kT*kT*kA*dA*dA*dG*dT*dG*dT*dA*dT*dG*kT*k[5mC]*kA*eG) [compound 1198615]")
23
>>> data_value("1200820 (kG*kG*kA*dA*dG*mA*dT*d[5mC]*dT*dG*dA*dA*dA*k[5mC]*kT*k[5mC]; antisense) [compound 1200820]")
69
>>> data_value("1198697 (kA*kG*dT*dG*dT*dA*dT*dG*dT*d[5mC]*dA*dG*kA*eA*kG*eA) [compound 1198697]")
29
>>> data_value("1009326 (kT*kA*kT*dT*dA*dG*dA*dG*dT*dA*dT*dG*dT*kG*kG*k[5mC]; antisense) [compound 1009326]")
35
